test: in vitro
stated.conditions: human, uninfected MT-4 cells
Description: Concentration required to cause 50% death of uninfected MT-4 cells
Sorting guide: entries reporting CC50 beneath 50 µM go in the 1.0 pile, the rest go in the 0.0 pile.

Study these solved cases before continuing.
compound	class.label
Cc1cn(C2CC(N=[N+]=[N-])C(COC(=O)CCCCN3CCCN(C(=O)CCCC(=O)N4CCCNCCNCCCNCC4)CCNCCCNCC3)O2)c(=O)[nH]c1=O (stereo not given)	0.0
Cc1cn(C2CC(N=[N+]=[N-])C(COC(=O)CCCCN3CCCN(Cc4ccc(CN5CCCN(C(=O)OC(C)(C)C)CCN(C(=O)OC(C)(C)C)CCCN(C(=O)OC(C)(C)C)CC5)cc4)CCN(C(=O)OC(C)(C)C)CCCN(C(=O)OC(C)(C)C)CC3)O2)c(=O)[nH]c1=O (stereo not given)	1.0
Cc1cn(C2CC(N=[N+]=[N-])C(COC(=O)CCCCN3CCCN(C(=O)CCCC(=O)N4CCCN(C(=O)OC(C)(C)C)CCN(C(=O)OC(C)(C)C)CCCN(C(=O)OC(C)(C)C)CC4)CCN(C(=O)OC(C)(C)C)CCCN(C(=O)OC(C)(C)C)CC3)O2)c(=O)[nH]c1=O (stereo not given)	1.0
CC(C)(C)OC(=O)N1CCCN(C(=O)OC(C)(C)C)CCN(C(=O)c2ccc(C(=O)N3CCCN(C(=O)OC(C)(C)C)CCN(C(=O)OC(C)(C)C)CCCN(C(=O)OC(C)(C)C)CC3)cc2)CCCN(C(=O)OC(C)(C)C)CC1	1.0
Cc1cn(C2CC(N=[N+]=[N-])C(COC(=O)CCCCN3CCCN(C(=O)c4ccc(C(=O)N5CCCN(C(=O)OC(C)(C)C)CCN(C(=O)OC(C)(C)C)CCCN(C(=O)OC(C)(C)C)CC5)cc4)CCN(C(=O)OC(C)(C)C)CCCN(C(=O)OC(C)(C)C)CC3)O2)c(=O)[nH]c1=O (stereo not given)	1.0
Cc1cn(C2CC(N=[N+]=[N-])C(COC(=O)CCCC(=O)N3CCCNCCNCCCNCC3)O2)c(=O)[nH]c1=O (stereo not given)	0.0
CC(C)(C)OC(=O)N1CCCN(C(=O)OC(C)(C)C)CCN(C(=O)OC(C)(C)C)CCCN(C(=O)CCCC(=O)N2CCCN(C(=O)OC(C)(C)C)CCN(C(=O)OC(C)(C)C)CCCN(C(=O)OC(C)(C)C)CC2)CC1	1.0
Cc1cn(C2CC(N=[N+]=[N-])C(COC(=O)CCCCN3CCCN(C(=O)c4ccc(C(=O)N5CCCNCCNCCCNCC5)cc4)CCNCCCNCC3)O2)c(=O)[nH]c1=O (stereo not given)	0.0

Ask: Identify whether the compound Cc1cn(C2CC(N=[N+]=[N-])C(COC(=O)CCCCN3CCCNCCNCCCNCC3)O2)c(=O)[nH]c1=O (stereo not given) records CC50 below 50 µM.
Result: 1.0

Ask: Identify whether the compound O=C(c1ccc(C(=O)N2CCCNCCNCCCNCC2)cc1)N1CCCNCCNCCCNCC1 records CC50 below 50 µM.
Result: 0.0

Ask: Identify whether the compound CC(C)(C)OC(=O)N1CCCN(C(=O)OC(C)(C)C)CCN(C(=O)OC(C)(C)C)CCCN(Cc2ccc(CN3CCCN(C(=O)OC(C)(C)C)CCN(C(=O)OC(C)(C)C)CCCN(C(=O)OC(C)(C)C)CC3)cc2)CC1 records CC50 below 50 µM.
Result: 1.0

Ask: Identify whether the compound Cc1cn(C2CC(N=[N+]=[N-])C(COC(=O)CCCCN3CCCN(Cc4ccc(CN5CCCNCCNCCCNCC5)cc4)CCNCCCNCC3)O2)c(=O)[nH]c1=O (stereo not given) records CC50 below 50 µM.
Result: 0.0
